# credit: ChEMBL document CHEMBL4680222

- assayedTarget: NAD-dependent protein deacetylase sirtuin-3, mitochondrial (Homo sapiens)
- Sequence (whole entry): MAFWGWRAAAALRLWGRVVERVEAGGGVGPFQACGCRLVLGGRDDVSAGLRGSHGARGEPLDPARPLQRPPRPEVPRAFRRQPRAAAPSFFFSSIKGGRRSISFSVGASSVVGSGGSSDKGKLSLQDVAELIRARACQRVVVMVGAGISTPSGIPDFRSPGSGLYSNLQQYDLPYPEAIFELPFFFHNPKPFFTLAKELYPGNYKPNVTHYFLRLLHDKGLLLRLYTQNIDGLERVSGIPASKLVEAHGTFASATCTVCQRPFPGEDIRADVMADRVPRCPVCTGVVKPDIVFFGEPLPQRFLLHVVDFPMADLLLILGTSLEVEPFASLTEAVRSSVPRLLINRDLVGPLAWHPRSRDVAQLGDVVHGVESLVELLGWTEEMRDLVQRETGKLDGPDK
- testSummary: Substrate activity at human N-terminal His-tagged SIRT3 (122 to 391 residues) expressed in Escherichia coli at 50 uM measured after 2 hrs in presence of NAD+ and trypsin by fluorescence assay
*1 amine or outer side, *2 acyl side, *3 side chain or, on linkers, in order; H or OH if unused. Where a SMILES comes first, the peptide text is derived from it. The star is where a group is joined. AMC = Cc1cc(=O)oc2cc(N*)ccc12; Suc = O=C(CCC(=O)[*:2])[*:1]; Decanoyl = CCCCCCCCCC(=O)*
assayEndpoint: Activity (RFU)
API: value field is a number in RFU; no unit string.

What does the record list as Activity for CC(=O)NCCCC[C@H](NC(=O)[C@H](CCCNC(=N)N)NC(=O)[C@H](C)NC(=O)[C@@H](NC(C)=O)[C@@H](C)O)C(=O)Nc1ccc2c(C)cc(=O)oc2c1 (Ac-TARK(Ac)-{AMC}) ?
0.88

Look at this molecule and give its reported Activity. CCCCCCCCCC(=O)NCCCC[C@H](NC(=O)[C@H](CCC(N)=O)NC(=O)[C@@H](NC(=O)[C@H](CCCCN)NC(C)=O)C(C)C)C(=O)Nc1ccc2c(C)cc(=O)oc2c1 (Ac-KVQK(Decanoyl)-{AMC})
0.85

What does the data say about its Activity? Entry: CC(=O)N[C@@H](CC(C)C)C(=O)NCC(=O)N[C@@H](CO)C(=O)N[C@@H](CCCCNC(=O)CCC(=O)O)C(=O)Nc1ccc2c(C)cc(=O)oc2c1 (Ac-LGSK(Suc)-{AMC})
1.42

Bench note: what Activity did CC[C@H](C)[C@H](NC(=O)[C@H](CC(C)C)NC(=O)[C@H](CCCNC(=N)N)NC(C)=O)C(=O)N[C@@H](CCCCNC(C)=O)C(=O)Nc1ccc2c(C)cc(=O)oc2c1 (Ac-RLIK(Ac)-{AMC}) show?
28.2

Name the recorded Activity for CC(=O)NCCCC[C@H](NC(=O)[C@H](CO)NC(=O)[C@H](Cc1ccccc1)NC(=O)[C@H](CC(=O)O)NC(C)=O)C(=O)Nc1ccc2c(C)cc(=O)oc2c1 (Ac-DFSK(Ac)-{AMC}) .
7.07
